testedSystem: T1, human ROR1-Fz (Homo sapiens, UniProt Q01973)
T1 construct: Frizzled (Fz, residues 165-305); His6 (C); purchased Acro Biosystems; host or cells: HEK293
T1 sequence (Q01973 165-305): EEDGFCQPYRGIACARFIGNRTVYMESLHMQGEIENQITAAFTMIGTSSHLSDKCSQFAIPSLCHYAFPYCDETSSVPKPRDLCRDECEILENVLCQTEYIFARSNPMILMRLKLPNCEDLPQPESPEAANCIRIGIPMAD
protocolText: Biacore off-rate and kinetic analysis, ROR1-Fz
Format: binding
particulars: Table 11; SP34 light chain
endpointName: Biacore human ROR1-Fz ka (M⁻¹ s⁻¹)
Supply the numeric figure in M⁻¹ s⁻¹, leaving out any unit text.

Data request: State, in one line, measured Biacore human ROR1-Fz ka of SRP2196-A08 (antibody, V domains shown) VH: EVQLVESGGGLVQPGGSLRLSCAASGFNITGYYIHWVRQAPGKGLEWVGYISPNSGSTYKADSVKGRFTISADTSRNTAYLQMNSLRAEDTAVYYCARDSRRYVRSWDYWGQGTLVTVSS VL: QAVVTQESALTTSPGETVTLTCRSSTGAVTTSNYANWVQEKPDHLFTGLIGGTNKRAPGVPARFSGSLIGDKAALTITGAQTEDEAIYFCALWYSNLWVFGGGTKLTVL
Data returned: 183000

Data request: State, in one line, measured Biacore human ROR1-Fz ka of SRP2196-A10 (antibody, V domains shown) VH: EVQLVESGGGLVQPGGSLRLSCAASGFNITGYYIHWVRQAPGKGLEWVGYISPNSGATHYADSVKGRFTISADISKNTAYLQMNSLRAEDTAVHYCARDSRRYVRSWDYWGQGTLVTVSS VL: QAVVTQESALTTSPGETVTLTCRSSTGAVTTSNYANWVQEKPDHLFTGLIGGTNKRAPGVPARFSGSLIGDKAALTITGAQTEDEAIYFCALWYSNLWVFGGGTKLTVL
Data returned: 172000

Data request: State, in one line, measured Biacore human ROR1-Fz ka of SRP2196-C03 (antibody, V domains shown) VH: EVQLVESGGGLVQPGGSLRLSCAASGFNITGYYIHWVRQAPGKGLEWVGQISPNSGSTYSADSVKGRFTISADTSKNTAYLQMSSLRAEDTAVYYCARDSRRYVLSWDYWGQGTLVTVSS VL: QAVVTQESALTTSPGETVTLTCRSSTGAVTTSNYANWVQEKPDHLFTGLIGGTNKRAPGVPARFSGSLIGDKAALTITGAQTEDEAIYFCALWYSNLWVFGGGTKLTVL
Data returned: 143000
